- assay-method-text: Cytotoxicity against human EJM cells assessed as cell viability at 20 uM after 6 hrs by CellTiter Glo luminescent assay relative to control
- Assay type: cell-based
- conditions-used: read-out: Activity
reported-metric: viability at 6 h, 20 µM

{"molecule-smiles": "O=C(Nc1cc(Cl)c2c(c1)[nH]c1cnccc12)c1cccnc1", "reported-metric": "viability at 6 h, 20 µM", "recorded-measurement": "≥ 80%"}

* * *

- assay-method-text: Cytotoxicity against human EJM cells assessed as cell viability at 1 uM after 6 hrs by CellTiter Glo luminescent assay relative to control
- Assay type: cell-based
- conditions-used: read-out: Activity

{"molecule-smiles": "COCCOc1cnc(N)nc1-c1c[nH]c2ccc(C#CC(C)(C)O)cc12", "viability at 6 h, 1 µM": "≥ 80%"}
